test: forskolin-driven CRE-LacZ activity in PC12 – cell-based, CRE-LacZ reporter, forskolin-stimulated, primary screen (AID 1146); conditions: luminescence, 4.5 h, higher = more signal, called active from +8 up or from −8 down;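 also: PC12 cells with 6xCRE LacZ reporter stimulated by forskolin 10 µM; beta-galactosidase reporter signal reflecting CREB driven transcription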
z-score of 2 or higher: Y. Under 2: N.

Previously resolved entries follow.
compound | labelClass
[N-]=[N+]=Nc1ccccc1C[C@]1(C(=O)NCC(O)CO)COC(c2ccc(OCCCO)cc2)=N1 (stereo partly specified) | N
O=C(C1N=C(c2ccc(OCCCO)cc2)N(c2ccccc2)O1)N1CCCCC1 (stereo unspecified) | N
CO[C@H]1O[C@H](CO)[C@@H](OC(=O)Nc2ccc(Br)cc2)[C@@H]2OC(=O)[C@@H](Cc3ccccc3)C/C=C/C[C@H](Cc3ccccc3)C(=O)O[C@@H]12 | N
CC1CC/C=C\[C@H]2OC34C=CCN(c5ccc(Cl)cc5)C(=O)[C@H]3N(C(C)CO)C(=O)[C@]4(C)C2C(=O)O1 (stereo partly specified) | N
COc1ccc(CCNC(=O)[C@@]2(Sc3ccc(C)cc3)CC(=O)N(Cc3ccccc3C(F)(F)F)[C@@H]2c2ccc(CO)cc2I)cc1 | Y

Given O=C1C[C@]2(c3ccc([N+](=O)[O-])cc3)C(=O)N(C3CC3)c3cc(CO)ccc3[C@H]2N1CC12CC3CC(CC(C3)C1)C2 , state whether its z-score is at least 2.
N
